Data origin, for the record: the supplement of paper PMC7125110

B1: glmS ribozyme (parent)
chain: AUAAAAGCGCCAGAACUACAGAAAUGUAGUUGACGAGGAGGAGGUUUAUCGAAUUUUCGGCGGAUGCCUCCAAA

variants of: B1; assay: self-cleavage kobs at 640 uM GlcN6P; higher = faster cleavage; RNA array; conditions: with glucosamine-6-phosphate
Fewer inactive variants are shown than the library holds.
assay-readout: self-cleavage kobs at 640 uM GlcN6P (s⁻¹)

INSERT INTO assay_data (residue_change, assay_readout, units, censoring_operator, recorded_result) VALUES
  ('C8U C19A G35A A36U G51U', 'self-cleavage kobs at 640 uM GlcN6P', 's⁻¹', '<', '1e-05'),
  ('U55C C71A', 'self-cleavage kobs at 640 uM GlcN6P', 's⁻¹', '=', '5.32e-05'),
  ('G60A C61G C67G', 'self-cleavage kobs at 640 uM GlcN6P', 's⁻¹', '<', '1e-05'),
  ('A12G G38U A52U A64U', 'self-cleavage kobs at 640 uM GlcN6P', 's⁻¹', '<', '1e-05'),
  ('A6U C10A A39G G40C C61G C67G', 'self-cleavage kobs at 640 uM GlcN6P', 's⁻¹', '<', '1e-05'),
  ('C8U C34U A42U U65A C67G', 'self-cleavage kobs at 640 uM GlcN6P', 's⁻¹', '=', 0.000104),
  ('A28C', 'self-cleavage kobs at 640 uM GlcN6P', 's⁻¹', '=', 0.0103),
  ('G29A A39G', 'self-cleavage kobs at 640 uM GlcN6P', 's⁻¹', '=', 0.00148),
  ('G38C U55A A64C', 'self-cleavage kobs at 640 uM GlcN6P', 's⁻¹', '<', '1e-05'),
  ('A12C G51U', 'self-cleavage kobs at 640 uM GlcN6P', 's⁻¹', '<', '1e-05'),
  ('C8G C71A', 'self-cleavage kobs at 640 uM GlcN6P', 's⁻¹', '<', '1e-05'),
  ('A15G C58A C70U', 'self-cleavage kobs at 640 uM GlcN6P', 's⁻¹', '=', '8.95e-05'),
  ('A33U U54G', 'self-cleavage kobs at 640 uM GlcN6P', 's⁻¹', '=', '4.57e-05'),
  ('U46C U69C', 'self-cleavage kobs at 640 uM GlcN6P', 's⁻¹', '=', 0.000644);
